biological target: recombinant human PAD4 (human, UniProt Q9UM07 1-663); assay: cell-based or functional assay
Sequence (Q9UM07 whole entry): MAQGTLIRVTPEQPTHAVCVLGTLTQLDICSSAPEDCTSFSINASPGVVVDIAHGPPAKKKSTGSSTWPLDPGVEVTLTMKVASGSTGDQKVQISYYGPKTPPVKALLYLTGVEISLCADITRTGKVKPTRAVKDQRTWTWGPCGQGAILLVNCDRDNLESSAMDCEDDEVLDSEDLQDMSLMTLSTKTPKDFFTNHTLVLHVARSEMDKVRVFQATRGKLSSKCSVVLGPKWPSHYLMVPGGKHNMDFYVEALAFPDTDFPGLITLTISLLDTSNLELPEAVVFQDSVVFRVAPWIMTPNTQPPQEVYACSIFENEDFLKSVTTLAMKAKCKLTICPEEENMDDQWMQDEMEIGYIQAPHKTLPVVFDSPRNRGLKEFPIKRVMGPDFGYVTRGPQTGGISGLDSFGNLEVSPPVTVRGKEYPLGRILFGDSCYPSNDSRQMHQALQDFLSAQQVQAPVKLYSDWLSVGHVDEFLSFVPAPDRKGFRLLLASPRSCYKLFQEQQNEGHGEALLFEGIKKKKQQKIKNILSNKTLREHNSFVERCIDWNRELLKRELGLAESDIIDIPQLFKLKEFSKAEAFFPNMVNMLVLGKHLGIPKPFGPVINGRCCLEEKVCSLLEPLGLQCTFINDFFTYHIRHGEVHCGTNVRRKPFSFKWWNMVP
Numbered stars: 1 amine (or outer) side, 2 acyl side, 3 side chain; on linkers, the order of the positions; unused ones are H or OH. Square brackets hold non-standard residues; d marks the D form. Ends that are not written are not given here. O(CA) = ornithine chloroamidine, N=C(CCl)NCCC[C@H](N[*:1])C(=O)[*:2]; Orn(fluoroacetimidoyl) = N=C(CF)NCCC[C@H](N)C(=O)O
Threshold check on IC50 values (µM), ABAP PAD activity assay: strictly below 200 µM is Met; on or above 200 µM is Not met.

Illustrative cases are given below, each with its answer.
# binder, group
data = [
    ("GS[Orn(fluoroacetimidoyl)]DG [G-S-O(FA)-D-G]", "Not met"),
    ("SS[Orn(fluoroacetimidoyl)]DG [S-S-O(FA)-D-G]", "Met"),
    ("GD[Orn(fluoroacetimidoyl)]SG [G-D-O(FA)-S-G]", "Met"),
    ("TD[O(CA)]GS [T-D-O(CA)-G-S]", "Met"),
    ("GD[O(CA)]SG [G-D-O(CA)-S-G]", "Met"),
    ("GS[O(CA)]DG [G-S-O(CA)-D-G]", "Not met"),
]

Next item in the queue.
-- ask Is the reported IC50 values (µM), ABAP PAD activity assay for TD[Orn(fluoroacetimidoyl)]GS [T-D-O(FA)-G-S] strictly below 200 µM?
-- reply Met
